testedOn: T1, Rhesus monkey glycophorin A on Rhesus monkey red blood cells (Rhesus monkey, UniProt A0A1D5Q349 20-150)
T1 construct: whole, on cells; also called Rhesus RBC; monkey GPA
T1 sequence: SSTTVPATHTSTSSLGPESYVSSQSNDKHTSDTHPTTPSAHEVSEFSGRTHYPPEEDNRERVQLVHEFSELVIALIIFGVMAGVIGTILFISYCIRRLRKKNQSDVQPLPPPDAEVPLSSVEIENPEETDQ
experimentalDetails: FACS, RBC Rh01
Consider the cut-off 2000. If the recorded fluorescence intensity is strictly smaller, the label is met; if not, the label is not met.

1. Hu6C12-3 (antibody, V domains shown, IgG format; VH.1c + Vk.1) VH: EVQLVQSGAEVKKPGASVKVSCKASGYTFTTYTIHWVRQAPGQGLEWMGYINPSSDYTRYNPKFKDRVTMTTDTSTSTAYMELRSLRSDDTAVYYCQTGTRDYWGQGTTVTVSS VL: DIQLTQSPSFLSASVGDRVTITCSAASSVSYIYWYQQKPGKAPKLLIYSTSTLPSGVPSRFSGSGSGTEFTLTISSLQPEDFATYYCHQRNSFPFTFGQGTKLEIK ... met
2. Hu6C12-24 (antibody, V domains shown, IgG format; VH.1g + Vk.1b) VH: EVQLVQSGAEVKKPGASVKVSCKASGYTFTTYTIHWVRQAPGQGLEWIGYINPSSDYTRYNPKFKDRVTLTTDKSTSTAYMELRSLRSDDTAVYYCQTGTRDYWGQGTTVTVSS VL: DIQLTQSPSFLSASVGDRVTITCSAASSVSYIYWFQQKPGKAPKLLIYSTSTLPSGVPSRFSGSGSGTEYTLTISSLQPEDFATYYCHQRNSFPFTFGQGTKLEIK ... not met
3. Hu6C12-6 (antibody, V domains shown, IgG format; VH.1f + Vk.1) VH: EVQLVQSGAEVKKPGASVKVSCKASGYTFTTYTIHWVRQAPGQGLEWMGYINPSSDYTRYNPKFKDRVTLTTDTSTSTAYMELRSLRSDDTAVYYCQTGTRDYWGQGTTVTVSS VL: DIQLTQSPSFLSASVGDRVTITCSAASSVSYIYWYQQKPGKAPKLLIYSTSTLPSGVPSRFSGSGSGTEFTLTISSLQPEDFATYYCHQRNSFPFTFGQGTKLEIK ... met
4. Hu6C12-13 (antibody, V domains shown, IgG format; VH.1d + Vk.1a) VH: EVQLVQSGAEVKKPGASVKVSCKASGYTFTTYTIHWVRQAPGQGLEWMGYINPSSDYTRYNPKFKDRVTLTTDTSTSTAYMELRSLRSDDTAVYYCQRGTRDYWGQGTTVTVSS VL: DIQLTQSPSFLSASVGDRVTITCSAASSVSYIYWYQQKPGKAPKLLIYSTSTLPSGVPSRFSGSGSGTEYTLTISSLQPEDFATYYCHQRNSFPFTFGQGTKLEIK ... met
5. Hu6C12-11 (antibody, V domains shown, IgG format; VH.1b + Vk.1a) VH: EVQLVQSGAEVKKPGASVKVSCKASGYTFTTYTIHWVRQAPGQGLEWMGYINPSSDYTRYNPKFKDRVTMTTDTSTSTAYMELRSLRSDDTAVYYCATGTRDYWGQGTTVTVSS VL: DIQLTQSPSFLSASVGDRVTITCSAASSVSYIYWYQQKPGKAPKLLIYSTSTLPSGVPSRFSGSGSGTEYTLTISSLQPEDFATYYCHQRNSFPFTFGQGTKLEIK ... met
6. Hu6C12-14 (antibody, V domains shown, IgG format; VH.1e + Vk.1a) VH: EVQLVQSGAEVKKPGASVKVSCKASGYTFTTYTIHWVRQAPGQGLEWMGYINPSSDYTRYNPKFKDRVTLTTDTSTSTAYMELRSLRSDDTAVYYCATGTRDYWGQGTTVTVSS VL: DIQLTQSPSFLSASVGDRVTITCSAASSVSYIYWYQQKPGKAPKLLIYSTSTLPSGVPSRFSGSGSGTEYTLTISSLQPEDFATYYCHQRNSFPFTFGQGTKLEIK ... met
7. Hu6C12-23 (antibody, V domains shown, IgG format; VH.1f + Vk.1b) VH: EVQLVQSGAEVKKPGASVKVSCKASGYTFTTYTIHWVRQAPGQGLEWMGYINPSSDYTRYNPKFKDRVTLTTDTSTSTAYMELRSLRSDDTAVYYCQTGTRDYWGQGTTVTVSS VL: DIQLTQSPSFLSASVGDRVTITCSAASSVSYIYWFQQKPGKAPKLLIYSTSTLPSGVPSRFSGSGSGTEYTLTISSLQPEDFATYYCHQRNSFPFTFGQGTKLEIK ... met
8. 6C12B8/H8 (antibody, V domains shown, mouse IgG1/k from hybridoma; also called 6C12 parental; TPP-3422) VH: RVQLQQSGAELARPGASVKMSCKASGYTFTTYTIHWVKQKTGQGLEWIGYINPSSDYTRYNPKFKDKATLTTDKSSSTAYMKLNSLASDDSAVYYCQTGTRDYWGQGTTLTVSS VL: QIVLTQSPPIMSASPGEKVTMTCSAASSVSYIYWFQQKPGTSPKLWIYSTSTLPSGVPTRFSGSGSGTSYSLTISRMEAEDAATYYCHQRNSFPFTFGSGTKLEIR ... not met
9. Hu6C12-1 (antibody, V domains shown, IgG format; VH.1a + Vk.1) VH: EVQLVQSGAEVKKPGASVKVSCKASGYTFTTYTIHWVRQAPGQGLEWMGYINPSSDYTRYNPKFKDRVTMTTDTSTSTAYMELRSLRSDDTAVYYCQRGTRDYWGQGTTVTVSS VL: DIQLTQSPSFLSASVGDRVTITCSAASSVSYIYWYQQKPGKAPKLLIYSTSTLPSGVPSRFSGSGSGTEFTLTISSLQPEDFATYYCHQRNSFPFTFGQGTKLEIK ... met
